# experimental.protocol: Metabolic stability and enzyme kinetics in liver S9 (conversion to PF-00835231)
# applied.conditions: human, liver S9, pH 7.5, CLint,2, low affinity kinetic component
reported.metric: microsomal CLint (µL/min/mg)
Answers are plain numbers, in µL/min/mg.

Given COc1cccc2[nH]c(C(=O)N[C@@H](CC(C)C)C(=O)N[C@@H](C[C@@H]3CCNC3=O)C(=O)COP(=O)(O)O)cc12 [PF-07304814] , state its recorded microsomal CLint. 9.96

---

# System: CYP3A4/5
# experimental.protocol: in vitro
# applied.conditions: human, microsomes, pH 7.4, Percent of Control Activity, CYP 3A4/5 (mdz), 1 µM, Zero-Minute Preincubation
reported.metric: activity at 1 µM
Answer with the value and then the unit.

Please give the measured activity at 1 µM for this compound: COc1cccc2[nH]c(C(=O)N[C@@H](CC(C)C)C(=O)N[C@@H](C[C@@H]3CCNC3=O)C(=O)COP(=O)(O)O)cc12 [PF-07304814] 100%
